Target: T1, activated C1s (human, UniProt P09871 16-688)
T1 sequence: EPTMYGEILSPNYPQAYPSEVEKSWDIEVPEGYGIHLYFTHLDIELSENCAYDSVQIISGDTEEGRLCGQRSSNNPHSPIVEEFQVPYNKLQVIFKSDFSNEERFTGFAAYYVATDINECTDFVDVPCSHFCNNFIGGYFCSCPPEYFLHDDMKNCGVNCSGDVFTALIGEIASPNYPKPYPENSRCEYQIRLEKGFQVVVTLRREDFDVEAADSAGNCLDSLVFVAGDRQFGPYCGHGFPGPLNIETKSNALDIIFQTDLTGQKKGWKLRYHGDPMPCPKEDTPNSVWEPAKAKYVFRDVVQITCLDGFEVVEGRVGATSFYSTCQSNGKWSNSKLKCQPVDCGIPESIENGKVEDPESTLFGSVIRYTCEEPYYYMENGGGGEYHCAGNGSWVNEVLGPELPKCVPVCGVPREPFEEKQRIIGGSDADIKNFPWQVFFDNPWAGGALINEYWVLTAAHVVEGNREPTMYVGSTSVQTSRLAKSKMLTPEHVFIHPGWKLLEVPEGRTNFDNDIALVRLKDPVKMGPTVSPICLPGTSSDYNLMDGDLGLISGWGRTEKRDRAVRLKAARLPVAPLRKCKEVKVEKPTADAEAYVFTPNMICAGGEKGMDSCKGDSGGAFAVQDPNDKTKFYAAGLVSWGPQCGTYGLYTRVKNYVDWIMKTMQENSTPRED
Experiment: cell-based or functional assay
Measured attribute: IC50 of classical complement pathway inhibition ('Classical Pathway Inhibition', IC50 (M))

humanized VH3/Vk2 (antibody, V domains shown) VH: QVQLVQSGAEVKKPGASVKLSCTASGFNIKDDYIHWVKQAPGQGLEWIGRIDPADGHTKYAPKFQVKVTITADTSTSTAYLELSSLRSEDTAVYYCARYGYGREVFDYWGQGTTVTVSS VL: DIVLTQSPDSLAVSLGERATISCKASQSVDYDGDSYMNWYQQKPGQPPKILIYDASNLESGIPARFSGSGSGTDFTLTISSLEPEDFAIYYCQQSNEDPWTFGGGTKVEIK	1.26e-09
humanized VH5/Vk2 (antibody, V domains shown) VH: QVQLVQSGAEVKKPGASVKVSCAASGFNIKDDYIHWVRQAPGQGLEWIGRIDPADGHTKYAPKFQVKVTITADTSTSTAYMELSSLRSEDTAVYYCARYGYGREVFDYWGQGTTVTVSS VL: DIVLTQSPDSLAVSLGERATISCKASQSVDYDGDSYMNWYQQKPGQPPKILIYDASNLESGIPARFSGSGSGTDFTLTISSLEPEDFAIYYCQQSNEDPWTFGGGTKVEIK	1.33e-09
humanized VH5/Vk5 (antibody, V domains shown) VH: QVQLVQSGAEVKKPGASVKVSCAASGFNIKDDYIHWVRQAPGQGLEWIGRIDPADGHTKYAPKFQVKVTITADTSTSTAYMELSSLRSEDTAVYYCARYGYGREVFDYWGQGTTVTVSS VL: DIVLTQSPDSLAVSLGERATISCKASQSVDYDGDSYMNWYQQKPGQPPKLLIYDASNLESGIPARFSGSGSGTDFTLTISSLEPEDFAVYYCQQSNEDPWTFGGGTKVEIK	1.33e-09
humanized VH1/Vk5 (antibody, V domains shown) VH: EVQLVQSGAELKKPGASVKLSCTASGFNIKDDYIHWVKQAPGQGLEWIGRIDPADGHTKYAPKFQVKATITADTSTNTAYLQLSSLTSEDTAVYYCARYGYGREVFDYWGQGTTVTVSS VL: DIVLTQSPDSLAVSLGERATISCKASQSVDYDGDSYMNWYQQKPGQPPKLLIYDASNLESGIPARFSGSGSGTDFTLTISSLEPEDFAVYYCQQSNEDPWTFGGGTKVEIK	1.26e-09
